Molecular target: Sterol O-acyltransferase 2 (Mus musculus)
Sequence (O88908 whole entry): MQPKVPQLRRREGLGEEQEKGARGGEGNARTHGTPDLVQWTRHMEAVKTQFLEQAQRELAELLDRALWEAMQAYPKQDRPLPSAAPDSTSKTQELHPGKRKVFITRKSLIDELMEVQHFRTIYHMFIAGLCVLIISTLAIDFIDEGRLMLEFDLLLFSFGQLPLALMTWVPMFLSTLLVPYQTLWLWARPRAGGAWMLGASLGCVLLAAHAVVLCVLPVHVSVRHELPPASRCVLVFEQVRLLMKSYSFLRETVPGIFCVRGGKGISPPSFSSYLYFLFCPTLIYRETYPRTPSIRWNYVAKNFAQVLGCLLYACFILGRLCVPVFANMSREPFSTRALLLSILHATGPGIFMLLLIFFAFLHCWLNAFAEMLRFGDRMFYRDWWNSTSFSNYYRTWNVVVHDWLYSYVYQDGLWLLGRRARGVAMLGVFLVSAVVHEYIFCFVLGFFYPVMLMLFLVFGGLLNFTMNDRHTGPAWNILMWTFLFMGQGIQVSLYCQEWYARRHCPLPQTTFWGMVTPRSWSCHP
pIC50: −log10 of the molar value.
RECORDED_METRIC: pIC50

Prompt: Under Sterol O-acyltransferase 2 (Mus musculus): pIC50 value of "COC(=O)[C@]1(C)[C@@H](OC(C)=O)CC[C@]2(C)[C@H]3[C@@H](O)c4c(cc(-c5cccnc5)oc4=O)O[C@]3(C)[C@@H](OC(=O)c3ccc(C#N)cc3)C[C@H]21" ?
Completion: 9.00 to 9.30
